These measurements were taken from patent US20250152585A1.

Provide the reported Kd of each item.
target: N-terminally FLAG-tagged PARP2 (amino acids 1-583) (Homo sapiens, UniProt Q9UGN5); construct: N-terminally FLAG-tagged PARP2 (amino acids 1-583); test: PARP2 probe displacement HTRF assay; format: binding; details: binned Kd, PARP2 probe displacement HTRF
Sequence (Q9UGN5 whole entry, the tested form may be a part): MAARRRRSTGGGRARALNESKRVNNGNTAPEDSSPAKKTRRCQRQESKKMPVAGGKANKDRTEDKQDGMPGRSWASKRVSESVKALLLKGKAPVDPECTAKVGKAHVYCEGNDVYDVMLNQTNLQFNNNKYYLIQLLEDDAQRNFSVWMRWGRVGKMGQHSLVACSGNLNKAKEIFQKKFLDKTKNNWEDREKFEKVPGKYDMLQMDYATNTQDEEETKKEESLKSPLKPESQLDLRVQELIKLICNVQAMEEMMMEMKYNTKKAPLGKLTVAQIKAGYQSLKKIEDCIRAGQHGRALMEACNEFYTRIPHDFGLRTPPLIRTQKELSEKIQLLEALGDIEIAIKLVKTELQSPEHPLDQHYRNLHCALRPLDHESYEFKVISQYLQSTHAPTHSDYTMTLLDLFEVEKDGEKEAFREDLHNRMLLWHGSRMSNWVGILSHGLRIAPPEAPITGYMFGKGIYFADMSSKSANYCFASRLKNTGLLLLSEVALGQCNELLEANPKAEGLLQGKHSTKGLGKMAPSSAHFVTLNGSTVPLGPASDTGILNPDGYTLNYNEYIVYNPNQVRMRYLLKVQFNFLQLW

Reported Kd for CNC(=O)c1ccc(N2CCC(N3CCC(c4nc5c(c(=O)[nH]4)CCCN5C)C3)CC2)cn1 (single isomer, unassigned) [Compound 208b] was 10 to 100 nM

// recorded Kd for CNC(=O)c1ccc(N2CCC(N3CCC(c4ccc(OC)c(=O)[nH]4)C3)CC2)c(C(F)(F)F)n1 (single isomer, unassigned) [Compound 152b] : > 10000 nM

The compound listed as CNC(=O)c1ccc(N2CCC(N3CCCC(F)(c4nc5ccccc5c(=O)[nH]4)C3)CC2)cn1 (single isomer, unassigned) [Compound 71b] has a reported Kd of > 10000 nM

The recorded Kd for CNC(=O)c1ccc(N2CCC(N3CCCC(c4nc5ccccc5c(=O)[nH]4)C3)CC2)nc1 (single isomer, unassigned) [Compound 83a] is 1000 to 10000 nM

Kd in this record for CNC(=O)c1ccc(N2CCC(N3CCC4CC4(c4nc5ccccc5c(=O)[nH]4)C3)CC2)cn1 (single isomer, unassigned) [Compound 90b] : 1000 to 10000 nM

CNC(=O)c1ccc(N2CCC(N3CCCC(c4nc5cccc(F)c5c(=O)[nH]4)C3)CC2)cn1 (single isomer, unassigned) [Compound 88a] yielded Kd of 100 to 1000 nM
